settings: [M+H]+; instrument: DT; stepped-field
readout-name: collision cross section (N2)
Give your result as the value with the unit written after it.

Entry CCCCCC/C=C\CCCCCCCC(=O)OC[C@H](COP(=O)(O)OC[C@H](N)C(=O)O)OC(=O)CCCCCCCCC/C=C\CCCCCCCCCC [PS(38:02)] : reported collision cross section (N2) = ?
287.73 Å²

Entry CCCCCCCCCCCCCCCCCC(=O)N[C@@H](CO[C@@H]1O[C@H](CO)[C@@H](O)C(O)C1O)[C@H](O)CCCCCCCCCCCCCCC (stereo partly specified) [GlcCer(36:00)] : reported collision cross section (N2) = ?
284.59 Å²

Entry CCCCCCCCCCCCCCCCCC(=O)N[C@@H](CO)[C@H](O)CCCCCCCCCCCCCCC [Cer(36:00)] : reported collision cross section (N2) = ?
261.92 Å²

Entry CCCCC/C=C\C/C=C\CCCCCCCCCCCC(=O)O[C@H](COC(=O)CCCCCCCCCCCCCCCCC)COP(=O)(O)OC[C@H](N)C(=O)O [PS(40:02)] : reported collision cross section (N2) = ?
294.02 Å²

Entry CC/C=C\C/C=C\C/C=C\CCCCCCCC(=O)O[C@H](COC(=O)CCCCCCCCCCCCCCC)COP(=O)(O)OCCN [PE(34:03)] : reported collision cross section (N2) = ?
265.93 Å²

Entry CCCCCCCC/C=C\CCCCCCCC(=O)O[C@H](COC(=O)CCCCCCCCCCCCCCCCC)COP(=O)(O)OC[C@H](N)C(=O)O [PS(36:01)] : reported collision cross section (N2) = ?
283.39 Å²

----------
settings: [M+Na]+; instrument: TW; calibrated with phosphatidylcholines (ESI+) and phosphatidylethanolamines (ESI-)
Give measured collision cross section (N2) for each item. Keep answers brief.
Hi! Could you send only the number? It should be in Å², unit omitted.

Entry CCCCCCCCCCC=CCC=CCC(=O)OC[C@H](CO[C@@H]1O[C@H](CO[C@H]2O[C@H](CO)[C@H](O)C(O)C2O)[C@H](O)C(O)C1O)OC(=O)CC=CCC=CCCCCCCCCCC (stereo not given in full) : reported collision cross section (N2) = ?
301.1

Entry CCCCCCCCCCCCCC=CCC(=O)OC[C@H](CO[C@@H]1O[C@H](CO[C@H]2O[C@H](CO)[C@H](O)C(O)C2O)[C@H](O)C(O)C1O)OC(=O)CC=CCCCCCCCCCCCCC (stereo not given in full) [DGDG(34:2)] : reported collision cross section (N2) = ?
305.2

Entry CCCCCCCCCCCCCCCC(=O)OC[C@H](COP(=O)(O)O[C@H]1C(O)C(O)C(O)[C@@H](O)C1O)OC(=O)CCCCCCCCCCCCCCC (stereo not given in full) : reported collision cross section (N2) = ?
289.5

Entry CCCCCC/C=C\CCCCCCCCCC(=O)OC(COC(=O)CCCCCCCCCCCCCCC)COP(=O)([O-])OCC(O)COC(=O)C(C)[NH3+] (stereo not given) : reported collision cross section (N2) = ?
294.3

Entry CCCCCCCC=CCC=CCC=CCC(=O)OC[C@H](CO[C@@H]1O[C@H](CO[C@H]2O[C@H](CO)[C@H](O)C(O)C2O)[C@H](O)C(O)C1O)OC(=O)CC=CCC=CCC=CCCCCCCC (stereo not given in full) : reported collision cross section (N2) = ?
294.9
